tested on: A549; assay: NCI tumour cell line growth inhibition, 48 h
The source made the active and inactive calls. No stated cut-off is given here; in the data, active = GI50 up to about 1.1 µM and inactive = higher.
Mark one answer only. Choices: yes (1) (active), no (0) (inactive)

Recorded results for 5 molecules are shown here.
O=C1/C(=C/c2ccc(Cl)cc2)N=C(c2ccccc2)N1c1nc2ccc(Sc3ccccc3)cc2[nH]1	no (0)
CN(C)CCNC(=O)c1cccc2c1nc(-c1cccnc1)c1ccccc12	no (0)
COc1cc([C@@H]2c3cc4c(cc3[C@@H](NCCCN(C)C)[C@H]3COC(=O)[C@H]23)OCO4)cc(OC)c1O	yes (1)
CC(C)CC(N/C=C1/N=C(c2ccccc2)OC1=O)C(=O)O (centres undefined)	no (0)
Cc1c(C(=O)/C=C/c2ccccc2Cl)[n+]([O-])c2ccccc2[n+]1[O-]	no (0)

Which result was noted for this molecule in the test: O=C1/C(=C/c2ccc(Cl)c(Cl)c2)CNC/C1=C\c1ccc(Cl)c(Cl)c1
no (0)

Another molecule to check: C[C@]12CCC(=O)C=C1CC[C@@H]1[C@@H]2[C@@H](O)C[C@@]2(C)[C@H]1CC[C@]2(O)C(=O)COC(=O)C1CCCC1
no (0)

Another molecule to check: O=C(CC1=NCCN1)c1ccccc1
no (0)

Another molecule to check: CC1=C(C(=O)NCc2ccccc2)C(c2ccc(Cl)c(Cl)c2)C(C(=O)NCc2ccccc2)=C(C)N1
no (0)
